Values from the C3SDB collision cross section collection

Conditions: [M-H]-; instrument: DT; single field, calibrated with ESI Low Concentration Tuning Mix (Agilent)
Counter-ions that a name gives are not always drawn.

Compound	collision cross section (N2), Å²
Cn1cnc2c(ncn2[C@@H]2O[C@H](CO)[C@@H](O)[C@H]2O)c1=N	162.7
NC[C@H](O)c1ccc(O)c(O)c1	134.2
O=S(=O)(O)Oc1c[nH]c2ccccc12 [INDOXYL SULFATE]	143.3
O=C(O)CCC(=O)C(=O)O [OXOGLUTARATE]	120.9
O=c1ccn([C@H]2C[C@H](O)[C@@H](CO)O2)c(=O)[nH]1	148.9
CSCC[C@H](NC=O)C(=O)O	136.1
N[C@@H](COP(=O)(O)O)C(=O)O	127.5
CC(=O)NC(Cc1ccccc1)C(=O)O (stereo not given)	146.9
OC[C@@H](O)[C@@H](O)[C@H](O)[C@@H](O)CO	131.4
NC(=O)c1ccccc1O [SALICYLAMIDE]	121.1
O=C1CC(C(=O)O)NC(=O)N1 (stereo not given) [DIHYDROOROTATE]	125.2
OC[C@H]1O[C@H](O[C@H]2O[C@H](CO)[C@@H](O)[C@H](O)[C@H]2O)[C@H](O)[C@@H](O)[C@@H]1O	169.9
CSc1ncnc2nc[nH]c12	127.7
O=C(O)CNC(=O)c1ccccc1 [HIPPURATE]	142
OC[C@H]1O[C@@H](O[C@H]2[C@H](O)[C@@H](O)[C@H](O)O[C@@H]2CO)[C@H](O)[C@@H](O)[C@H]1O	176.9
